Reported %Inh values follow for various compounds
Tested on: BMX;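 also: KINOMEscan kinase panel screen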
Conditions: concentration: 1 μM,replicates: in singlicate; n = 1
readout-kind: %Inh (%)

CCCC(=O)Nc1n[nH]c2ncccc12: 28
C[C@@H]1CNc2c(sc3ccc4nc(-c5ccncc5)ccc4c23)C(=O)N1: 0
CS(=O)(=O)c1cccc(CNc2nc(Nc3ccc4c(c3)[C@@H]3C[C@@H]4CNC3=O)ncc2C(F)(F)F)c1: 4
CC(=O)Nc1nc2cnc(Nc3cc(NC(=O)c4cccc(CC(C)(C)C#N)c4)ccc3C)nc2s1: 9
NC(=O)c1ccc(-c2cc3ncnc(SCC(=O)O)c3s2)cc1: 15
Cn1ccc2ncnc(Oc3ccc(NC(=O)Nc4cnn(C(C)(C)C)c4)c(Cl)c3)c21: 0
NC(=O)Nc1sc(-c2ccc(F)cc2)cc1C(N)=O: 0
Cc1n[nH]c2cc(Nc3ccnc(Nc4cccc(CN5CCOCC5)c4)n3)ccc12: 11
CNC(=O)c1ccccc1Nc1nc(Nc2cccc(CS(C)(=O)=O)c2)ncc1C.O=CO: 97.2
